Field: TGI. Provide a value for each of the compounds that follow.
tested on: MCF7 breast; assay: NCI tumour cell line growth inhibition, 48 h

COMPOUND	MEASURED_ON	OBSERVATION_TYPE	TEST_RESULT
Oc1cc(O)c2c(c1)OC(c1ccc(O)c(O)c1)C(O)C2c1c(O)cc(O)c2c1OC(c1ccc(O)c(O)c1)C(O)C2 (stereo not drawn)	MCF7 breast	TGI	> 100 µM
COc1cc(NCCC2CCCCN2)c2ncccc2c1OC (stereo not drawn)	MCF7 breast	TGI	15.2 µM

Pending compound:
// recorded TGI for c1ccc(/C(=N\Nc2nc3ccccc3s2)c2ccccn2)cc1 : > 72.5 µM
